Cited source for all entries: patent US5856336A

# System: cholesterol biosynthesis from acetate (liver microsome and sup fraction)
# Test Summary: Test A: Inhibition of cholesterol biosynthesis from acetate in vitro
# Type: biochemical, male Wistar rat
# Experimental Parameters: Test A; rat liver microsome + sup fraction, [2-14C]sodium acetate, 2 hours at 37° C.; read-out: I50 (inhibitory activities by Test A)
Metric: IC50 (µM)

INSERT INTO assay_data (molecule, value_units, data_value) VALUES
  ('CC(C)c1nc2ccccc2c(-c2ccc(F)cc2)c1/C=C/C(O)CC(O)CC(=O)O (stereo not shown)', 'µM', 0.01);
